Items are presented alongside their recorded TGI.
tested on: SN12C renal; assay: NCI tumour cell line growth inhibition, 48 h

{"compound": "Cc1c(N2C(=O)/C(=C\\c3ccc(N(C)C)cc3)N=C2c2ccccc2)c(=O)n(-c2ccccc2)n1C", "TGI": "> 100 µM"}
{"compound": "O=C(/C=C/c1cccc(B(O)O)c1)c1cccc(B(O)O)c1", "TGI": "3.61 µM"}
{"compound": "O=C1CCC(=O)C(C(=O)CCC(=O)Nc2cccc(Cl)c2)C1 (stereo not given)", "TGI": "> 100 µM"}
{"compound": "O=C(NNC(=O)c1ccccc1Cl)c1ccccc1O", "TGI": "> 100 µM"}
{"compound": "CC(OCc1ccccc1)C(NC(=O)C1CSSCC(NC(=O)C(Cc2ccccc2)NC(=O)OCc2ccccc2)C(=O)NC(Cc2ccccc2)C(=O)NC(Cc2cn(C=O)c3ccccc23)C(=O)NC(CCCCNC(=O)OCc2ccccc2)C(=O)NC(C(C)OCc2ccccc2)C(=O)N1)C(N)=O (stereo not given)", "TGI": "> 100 µM"}
